# Target Of Assay: T1, ECD of human DLL3 over-expressed on HEK293 cells (human, UniProt Q9NYJ7 27-492)
# T1 construct: extracellular domain; also called HEK293-hDLL3; human DLL3 expressed on HEK293 cells
# T1 sequence (looked up): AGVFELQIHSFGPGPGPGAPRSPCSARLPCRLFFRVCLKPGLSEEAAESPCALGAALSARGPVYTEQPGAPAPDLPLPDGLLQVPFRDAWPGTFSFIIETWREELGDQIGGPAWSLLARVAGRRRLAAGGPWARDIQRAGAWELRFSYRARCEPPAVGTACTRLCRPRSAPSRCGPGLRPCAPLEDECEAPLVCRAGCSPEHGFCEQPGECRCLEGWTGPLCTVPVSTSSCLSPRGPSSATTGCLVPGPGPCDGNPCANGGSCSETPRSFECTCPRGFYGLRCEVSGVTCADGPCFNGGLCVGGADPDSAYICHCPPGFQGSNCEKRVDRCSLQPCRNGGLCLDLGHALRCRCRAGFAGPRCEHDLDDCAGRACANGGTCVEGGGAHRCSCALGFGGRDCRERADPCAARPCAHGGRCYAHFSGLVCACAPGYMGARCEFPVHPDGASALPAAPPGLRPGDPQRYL
# Test Description: flow cytometry on HEK293-hDLL3 cells
Outcome Measure: binding result

310P3C5-hIgG1 chimeric antibody (antibody, V domains shown) VH: EVQLQQSGPELVKPGASVKISCKASGYTFTDFYMNWVKQTHGKSLEWIGDANPNNGGTTHNPRFKGQATLTVDKSSNTAYMELRSLTSEDSAVYYCARGGLPGDFDYWGQGTTLTVSS VL: DIQMTQSSSSFSVSLGDRVTITCKASEDIYNRLAWYQQKPGNAPRLLISGVTSLETGVPSRFSGSGSGKDYTLSITSLQTEDVATYYCQQYWSFPWTFGGGTKLEIKR    binds
310P3C5-z15p21 PTM removed humanized antibody (antibody, V domains shown, variable regions fused to the constant region of human IgG1) VH: QVQLVQSGAEVKKPGASVKVSCKASGYTFTDFYMNWVKQAPGQGLEWIGDANPNYGGTTHNPRFKGRATLTVDKSASTAYMELRSLRSEDTAVYYCARGGLPGDFDYWGQGTTVTVSS VL: DIQMTQSPSSLSASVGDRVTITCKASEDIYNRLAWYQQKPGKAPKLLISGVTSLETGVPSRFSGSGSGTDFTFTISSLQPEDIATYYCQQYWSFPWTFGGGTKVEIK    binds
310P3C5-z15 humanized antibody (antibody, human IgG1, kappa, V domains shown, human IgG1) VH: QVQLVQSGAEVKKPGASVKVSCKASGYTFTDFYMNWVKQAPGQGLEWIGDANPNNGGTTHNPRFKGRATLTVDKSASTAYMELRSLRSEDTAVYYCARGGLPGDFDYWGQGTTVTVSS VL: DIQMTQSPSSLSASVGDRVTITCKASEDIYNRLAWYQQKPGKAPKLLISGVTSLETGVPSRFSGSGSGTDFTFTISSLQPEDIATYYCQQYWSFPWTFGGGTKVEIKR    binds

Each recorded value in this set is attributed to patent EP4803151A2.
